Assay: Prodrug stability assay in bio-relevant media (FaSSIF with pancreatin; GI tract stability)
Type: in vitro ADME
Details: parent prodrug area at 5 h divided by area at 0 h; 37° C.; 0.5 mg/mL pancreatin in FaSSIF
Description: Prodrug Stability Assay in Bio-Relevant Media The following assay was employed to evaluate the stability of the prodrugs in simulated gastrointestinal tract conditions. Preparation of fasted state simulated intestinal fluid (FaSSIF) using Phares SIF Powder was carried out according to protocols from Phare Drug Delivery AG (Baselland, Switzerland). […]
# key: entry, value: GI Tract stability
Could you give me the number in %? Just the number is fine.

- CC(C)OC(=O)[C@H](C)NP(=O)(CO[C@H](C)Cn1cnc2c(N)ncnc21)NC[C@H](C)C(=O)OC(C)C (single isomer, unassigned) [Example 6A]: 99.5
- CCCCCOC(=O)C(C)(C)NP(=O)(CO[C@H](C)Cn1cnc2c(N)ncnc21)N[C@@H](C)CC(=O)OC(C)C (single isomer, unassigned) [Example 26B]: 96.9
- CC(C)COC(=O)[C@H](C)NP(=O)(CO[C@H](C)Cn1cnc2c(N)ncnc21)NC[C@H](C)C(=O)OC(C)C (single isomer, unassigned) [Example 14A]: 38.3
- CC(C)COC(=O)[C@H](C)NP(=O)(CO[C@H](C)Cn1cnc2c(N)ncnc21)NC[C@H](C)C(=O)OC(C)C (single isomer, unassigned) [Example 14B]: 60.6

Here is another compound to look at.
## Task Entry CCCCCCCOC(=O)[C@H](C)NP(=O)(CO[C@H](C)Cn1cnc2c(N)ncnc21)NC[C@H](C)C(=O)OC(C)C (single isomer, unassigned) [Example 17B] : reported GI Tract stability = ?
## Result 0

* * *

# key: entry, value: GI Tract stability
assay: Prodrug stability assay in bio-relevant media (FaSSIF with pancreatin; GI tract stability); format: in vitro ADME; conditions: parent prodrug area at 5 h divided by area at 0 h; 37° C.; 0.5 mg/mL pancreatin in FaSSIF
Could you give me the number in %? Just the number is fine.

Sample records with GI Tract stability:
• CC(C)OC(=O)[C@H](C)CNP(=O)(CO[C@H](C)Cn1cnc2c(N)ncnc21)N[C@@H](C)C(=O)OC(C)C (single isomer, unassigned) [Example 10A] = 54.8
• CC(C)OC(=O)C[C@H](C)NP(=O)(CO[C@H](C)Cn1cnc2c(N)ncnc21)N[C@@H](C)C(=O)OC(C)C (single isomer, unassigned) [Example 8A] = 89.5

## Task Entry CCCCOC(=O)[C@H](C)NP(=O)(CO[C@H](C)Cn1cnc2c(N)ncnc21)NC[C@H](C)C(=O)OC(C)C (single isomer, unassigned) [Example 15B] : reported GI Tract stability = ?
## Result 65.8

## Task CC(C)OC(=O)C[C@@H](C)NP(=O)(CO[C@H](C)Cn1cnc2c(N)ncnc21)N[C@H](C)C(=O)OC1CCC1 (single isomer, unassigned) [Example 18A] ?
## Result 99.2

* * *

Tested on: HIV-1 (H9/IIIB strain)
Assay: microbe, parasite or virus in culture
Format: cell-based
Details: 50% normal human serum; MT4-GFP cells infected with HIV-1 H9/IIIB; inhibition of reproductive ratio R0; read-out: Viking, IC50 (50% NHS)
Experimental: Assessing Antiviral Potency in a Multiple Round HIV-1 Infection Assay (Viking Assay) The antiviral activity of the tenofovir prodrugs of the Examples herein was assessed in an assay that measures the rate of replication of HIV in cell culture, termed the Viking assay (Viral KINetics in Green cells) and performed as follows. […] Infected cells were quantified at two time points, ˜48 h and ˜72 h post-infection, by counting the number of green cells in each well using an Acumen eX3 scanner. […]
Quantity: IC50 (µM)
Could you give me the number in µM? Just the number is fine.

Sample records with IC50:
- CCCCCCOC(=O)C(C)(C)NP(=O)(CO[C@H](C)Cn1cnc2c(N)ncnc21)N[C@@H](CC(=O)OC(C)C)C(C)C (single isomer, unassigned) [Example 28B]: 0.0057
- CC(C)OC(=O)[C@@H](C)CNP(=O)(CO[C@H](C)Cn1cnc2c(N)ncnc21)N[C@H](C)C(=O)OC1CCCC1 (single isomer, unassigned) [Example 22B]: 0.291
- CCCCCOC(=O)C(C)(C)NP(=O)(CO[C@H](C)Cn1cnc2c(N)ncnc21)N[C@@H](C)CC(=O)OC(C)C (single isomer, unassigned) [Example 26B]: 0.0068
- CC(C)COC(=O)[C@H](C)NP(=O)(CO[C@H](C)Cn1cnc2c(N)ncnc21)NC[C@H](C)C(=O)OC(C)C (single isomer, unassigned) [Example 14B]: 0.0516

Here is another compound to look at.
## Task Entry CC(C)OC(=O)[C@@H](C)CNP(=O)(CO[C@H](C)Cn1cnc2c(N)ncnc21)N[C@@H](C)C(=O)OC1CCCC1 (single isomer, unassigned) [Example 11B] : reported IC50 = ?
## Result 0.0684
